# CONDITION NOTES: in methanol, 278.15 K
PROPERTY MEASURED: solubility (mole fraction)
Give your answer as a number; write no unit.

Look up solubility (mole fraction): `O=C1c2ccccc2-c2ccc(Br)cc21`
0.000214

* * *

# CONDITION NOTES: in methanol, 283.15 K
PROPERTY MEASURED: solubility (mole fraction)
Give your answer as a number; write no unit.

Look up solubility (mole fraction): `O=C1c2ccccc2-c2ccc(Br)cc21`
0.000265

* * *

# CONDITION NOTES: in isopropanol, 293.15 K
PROPERTY MEASURED: solubility (mole fraction)
Give your answer as a number; write no unit.

Look up solubility (mole fraction): `O=C1c2ccccc2-c2ccc(Br)cc21`
0.000765

* * *

# CONDITION NOTES: in methanol, 313.15 K
PROPERTY MEASURED: solubility (mole fraction)

Look up solubility (mole fraction): `O=C1c2ccccc2-c2ccc(Br)cc21`
0.00102

* * *

# CONDITION NOTES: in n-butyl acetate, 288.15 K
PROPERTY MEASURED: solubility (mole fraction)

Look up solubility (mole fraction): `O=C1c2ccccc2-c2ccc(Br)cc21`
0.00911

* * *

# CONDITION NOTES: in 1,4-dioxane, 293.15 K
PROPERTY MEASURED: solubility (mole fraction)
Give your answer as a number; write no unit.

Look up solubility (mole fraction): `O=C1c2ccccc2-c2ccc(Br)cc21`
0.0199

* * *

# CONDITION NOTES: in methanol, 303.15 K
PROPERTY MEASURED: solubility (mole fraction)

Look up solubility (mole fraction): `O=C1c2ccccc2-c2ccc(Br)cc21`
0.00066

* * *

# CONDITION NOTES: in ethyl acetate, 318.15 K
PROPERTY MEASURED: solubility (mole fraction)
Give your answer as a number; write no unit.

Look up solubility (mole fraction): `O=C1c2ccccc2-c2ccc(Br)cc21`
0.0183

* * *

# CONDITION NOTES: in ethanol, 303.15 K
PROPERTY MEASURED: solubility (mole fraction)
Give your answer as a number; write no unit.

Look up solubility (mole fraction): `O=C1c2ccccc2-c2ccc(Br)cc21`
0.00123

* * *

# CONDITION NOTES: in 1,4-dioxane, 303.15 K
PROPERTY MEASURED: solubility (mole fraction)

Look up solubility (mole fraction): `O=C1c2ccccc2-c2ccc(Br)cc21`
0.0284

* * *

# CONDITION NOTES: in acetonitrile, 288.15 K
PROPERTY MEASURED: solubility (mole fraction)
Give your answer as a number; write no unit.

Look up solubility (mole fraction): `O=C1c2ccccc2-c2ccc(Br)cc21`
0.00122

* * *

# CONDITION NOTES: in methyl acetate, 283.15 K
PROPERTY MEASURED: solubility (mole fraction)

Look up solubility (mole fraction): `O=C1c2ccccc2-c2ccc(Br)cc21`
0.00517
